systemTested: MST2 (Homo sapiens, UniProt Q13188)
Sequence (Q13188 1-491): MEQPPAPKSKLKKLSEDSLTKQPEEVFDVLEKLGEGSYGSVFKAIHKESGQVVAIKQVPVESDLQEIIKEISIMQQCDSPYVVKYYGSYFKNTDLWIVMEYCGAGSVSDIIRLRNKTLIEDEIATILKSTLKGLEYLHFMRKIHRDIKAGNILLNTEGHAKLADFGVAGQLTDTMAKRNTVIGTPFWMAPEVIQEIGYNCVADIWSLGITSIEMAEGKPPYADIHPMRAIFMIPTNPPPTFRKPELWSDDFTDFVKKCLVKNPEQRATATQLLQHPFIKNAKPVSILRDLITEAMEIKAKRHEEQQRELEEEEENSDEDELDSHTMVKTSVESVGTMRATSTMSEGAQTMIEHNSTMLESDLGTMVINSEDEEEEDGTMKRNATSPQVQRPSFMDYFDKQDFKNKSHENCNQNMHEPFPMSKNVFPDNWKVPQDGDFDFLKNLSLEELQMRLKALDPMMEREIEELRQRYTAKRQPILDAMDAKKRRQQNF
measurementContext: binder
dTm MST2 of 7 °C or higher: YES. Under 7 °C: NO.

Prompt line: dTm MST2 >= 7 °C for Cc1cccc(-c2ccc(-c3cc4cnc(NC(CO)CO)nc4n(CCCCN)c3=O)c(Cl)c2)n1 ?
Response line: NO

Prompt line: dTm MST2 >= 7 °C for COc1cc(N2CCN(C)CC2)ccc1Nc1ncc2cc(-c3ccc(-c4cccc(C)n4)cc3Cl)c(=O)n(CCCCN)c2n1 ?
Response line: YES

Prompt line: dTm MST2 >= 7 °C for COc1cc(N2CCOCC2)ccc1Nc1ncc2cc(-c3ccc(-c4cccc(C)n4)cc3Cl)c(=O)n(CCCCN)c2n1 ?
Response line: YES

Prompt line: dTm MST2 >= 7 °C for Cc1cccc(-c2ccc(-c3cc4cnc(Nc5ccc(O)cc5)nc4n(CCCCN)c3=O)c(Cl)c2)n1 ?
Response line: YES

Prompt line: dTm MST2 >= 7 °C for Cc1cccc(-c2ccc(-c3cc4cnc(NCCCN5CCCC5=O)nc4n(CCCCN)c3=O)c(Cl)c2)n1 ?
Response line: NO

Prompt line: dTm MST2 >= 7 °C for Cc1cccc(-c2ccc(-c3cc4cnc(Nc5ccc(CCCO)cc5)nc4n(CCCCN)c3=O)c(Cl)c2)n1 ?
Response line: YES

Prompt line: dTm MST2 >= 7 °C for Cc1cccc(-c2ccc(-c3cc4cnc(Nc5ccc(F)c(CO)c5)nc4n(CCCCN)c3=O)c(Cl)c2)n1 ?
Response line: YES

Prompt line: dTm MST2 >= 7 °C for Cc1cccc(-c2ccc(-c3cc4cnc(NCCCN5CCOCC5)nc4n(CCCCN)c3=O)c(Cl)c2)n1 ?
Response line: NO

Prompt line: dTm MST2 >= 7 °C for Cc1cccc(-c2ccc(-c3cc4cnc(NCCCN5CCNCC5)nc4n(CCCCN)c3=O)c(Cl)c2)n1 ?
Response line: NO

Prompt line: dTm MST2 >= 7 °C for COc1ccc(O)c(Nc2ncc3cc(-c4ccc(-c5cccc(C)n5)cc4Cl)c(=O)n(CCCCN)c3n2)c1 ?
Response line: NO

Prompt line: dTm MST2 >= 7 °C for Cc1cccc(-c2ccc(-c3cc4cnc(Nc5ccc(C)c(O)c5)nc4n(CCCCN)c3=O)c(Cl)c2)n1 ?
Response line: YES

Prompt line: dTm MST2 >= 7 °C for Cc1cccc(-c2ccc(-c3cc4cnc(Nc5cc(C(F)(F)F)ccc5C)nc4n(CCCCN)c3=O)c(Cl)c2)n1 ?
Response line: YES

====

systemTested: MST1 (Homo sapiens, UniProt Q13043)
Sequence (Q13043 1-487): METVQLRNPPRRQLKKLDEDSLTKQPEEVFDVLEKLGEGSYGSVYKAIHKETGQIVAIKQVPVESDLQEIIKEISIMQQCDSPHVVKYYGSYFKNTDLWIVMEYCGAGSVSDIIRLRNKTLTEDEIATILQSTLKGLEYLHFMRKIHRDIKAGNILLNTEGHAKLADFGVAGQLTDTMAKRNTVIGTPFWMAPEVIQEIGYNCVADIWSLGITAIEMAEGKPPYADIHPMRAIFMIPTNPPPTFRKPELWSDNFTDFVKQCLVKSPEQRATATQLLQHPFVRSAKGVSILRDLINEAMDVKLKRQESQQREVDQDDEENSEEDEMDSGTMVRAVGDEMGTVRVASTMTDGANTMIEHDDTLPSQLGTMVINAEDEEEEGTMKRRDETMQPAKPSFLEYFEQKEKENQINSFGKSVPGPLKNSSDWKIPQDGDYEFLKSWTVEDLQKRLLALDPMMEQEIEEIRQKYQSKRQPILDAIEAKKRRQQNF
measurementContext: binder
dTm MST1 of 4 °C or higher: Satisfied. Under 4 °C: Not satisfied.

Prompt line: dTm MST1 >= 4 °C for CNc1ncc2cc(-c3ccc(-c4cccc(C)n4)cc3Cl)c(=O)n(CCC3CCNCC3)c2n1 [compound 22] ?
Response line: Satisfied

Prompt line: dTm MST1 >= 4 °C for CNc1ncc2cc(-c3ccc(-c4cccc(C)n4)cc3Cl)c(=O)n(CCCCN)c2n1 [compound 20, MRLW5] ?
Response line: Satisfied

Prompt line: dTm MST1 >= 4 °C for CNc1ncc2cc(-c3ccc(-c4cccc(C)n4)cc3Cl)c(=O)n(CCCOC)c2n1 [compound 12] ?
Response line: Not satisfied

Prompt line: dTm MST1 >= 4 °C for CNc1ncc2cc(-c3ccc(-c4cccc(C)n4)cc3Cl)c(=O)n(CCCCCN)c2n1 [compound 21] ?
Response line: Satisfied

Prompt line: dTm MST1 >= 4 °C for CNc1ncc2cc(-c3ccc(-c4cccc(C)n4)cc3Cl)c(=O)n(C)c2n1 [compound 10] ?
Response line: Not satisfied

Prompt line: dTm MST1 >= 4 °C for CNc1ncc2cc(-c3ccc(-c4cccc(C)n4)cc3Cl)c(=O)n(CCCCO)c2n1 [compound 16] ?
Response line: Not satisfied

Prompt line: dTm MST1 >= 4 °C for CNc1ncc2cc(-c3ccc(-c4cccc(C)n4)cc3Cl)c(=O)n(C[C@H]3CC[C@H](N)CC3)c2n1 [compound 23, 23] ?
Response line: Satisfied

Prompt line: dTm MST1 >= 4 °C for CNc1ncc2cc(-c3ccc(-c4cccc(C)n4)cc3Cl)c(=O)n(CCN)c2n1 [compound 18] ?
Response line: Not satisfied

====

systemTested: PAK1 (Homo sapiens, UniProt Q13153)
Sequence (Q13153 whole entry): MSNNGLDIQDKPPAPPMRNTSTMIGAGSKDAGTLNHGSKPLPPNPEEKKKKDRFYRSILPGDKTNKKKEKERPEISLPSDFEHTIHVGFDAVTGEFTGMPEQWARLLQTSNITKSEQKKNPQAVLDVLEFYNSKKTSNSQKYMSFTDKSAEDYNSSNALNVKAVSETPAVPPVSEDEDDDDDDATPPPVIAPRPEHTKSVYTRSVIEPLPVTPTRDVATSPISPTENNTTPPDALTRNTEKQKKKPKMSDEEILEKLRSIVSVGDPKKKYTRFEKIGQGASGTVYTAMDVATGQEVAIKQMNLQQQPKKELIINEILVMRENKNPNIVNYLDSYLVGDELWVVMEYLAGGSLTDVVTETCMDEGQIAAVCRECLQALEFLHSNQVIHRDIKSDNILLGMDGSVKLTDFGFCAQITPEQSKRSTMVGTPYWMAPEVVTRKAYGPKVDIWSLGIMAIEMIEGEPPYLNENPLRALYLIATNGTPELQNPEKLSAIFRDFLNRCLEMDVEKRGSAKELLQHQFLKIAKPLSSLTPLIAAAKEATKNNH
measurementContext: binder
Please go through the items and note down their dTm PAK1.
Supply the numeric figure in °C, leaving out any unit text.

Prompt line: Please look up its dTm PAK1: Cc1cccc(-c2ccc(-c3cc4cnc(Nc5ccc(O)cc5)nc4n(CCCCN)c3=O)c(Cl)c2)n1
Response line: 9.2

Prompt line: Please look up its dTm PAK1: Cc1cccc(-c2ccc(-c3cc4cnc(Nc5ccc(F)c(CO)c5)nc4n(CCCCN)c3=O)c(Cl)c2)n1
Response line: 9.3

Prompt line: Please look up its dTm PAK1: Cc1cccc(-c2ccc(-c3cc4cnc(NCCCN5CCOCC5)nc4n(CCCCN)c3=O)c(Cl)c2)n1
Response line: 4.1

Prompt line: Please look up its dTm PAK1: Cc1cccc(-c2ccc(-c3cc4cnc(Nc5ccc(C)c(O)c5)nc4n(CCCCN)c3=O)c(Cl)c2)n1
Response line: 9.1

====

systemTested: UniProtKB Q9Y6E0
Sequence (Q9Y6E0 whole entry): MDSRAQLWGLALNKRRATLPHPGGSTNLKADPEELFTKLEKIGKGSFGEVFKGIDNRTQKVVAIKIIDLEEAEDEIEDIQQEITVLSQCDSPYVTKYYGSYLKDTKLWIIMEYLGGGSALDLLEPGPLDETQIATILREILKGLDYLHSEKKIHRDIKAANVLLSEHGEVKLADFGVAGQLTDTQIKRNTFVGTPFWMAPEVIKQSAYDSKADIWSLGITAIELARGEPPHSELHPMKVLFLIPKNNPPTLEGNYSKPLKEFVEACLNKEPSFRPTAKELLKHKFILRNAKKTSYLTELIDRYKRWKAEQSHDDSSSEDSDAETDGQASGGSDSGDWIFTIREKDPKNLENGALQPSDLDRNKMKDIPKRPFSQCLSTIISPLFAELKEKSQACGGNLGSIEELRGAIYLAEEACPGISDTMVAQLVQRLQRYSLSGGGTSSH
measurementContext: binder
experimentalEndpoint: dTm MST3 (°C)
Supply the numeric figure in °C, leaving out any unit text.

Prompt line: Please look up its dTm MST3: CNc1ncc2cc(-c3ccc(-c4cccc(C)n4)cc3Cl)c(=O)n(CCCO)c2n1
Response line: 6.2

Prompt line: Please look up its dTm MST3: CNc1ncc2cc(-c3ccc(-c4cccc(C)n4)cc3Cl)c(=O)n(CCCCOC)c2n1
Response line: 6.2

Prompt line: Please look up its dTm MST3: CNc1ncc2cc(-c3ccc(-c4cccc(C)n4)cc3Cl)c(=O)n(CCC3CCNCC3)c2n1
Response line: 10.5

Prompt line: Please look up its dTm MST3: CNc1ncc2cc(-c3ccc(-c4cccc(C)n4)cc3Cl)c(=O)n(C)c2n1
Response line: 3.7

Prompt line: Please look up its dTm MST3: CNc1ncc2cc(-c3ccc(-c4cccc(C)n4)cc3Cl)c(=O)n(CCO)c2n1
Response line: 7.8

Prompt line: Please look up its dTm MST3: CNc1ncc2cc(-c3ccc(-c4cccc(C)n4)cc3Cl)c(=O)n(C[C@H]3CC[C@H](N)CC3)c2n1
Response line: 10.8

Prompt line: Please look up its dTm MST3: CNc1ncc2cc(-c3ccc(-c4cccc(C)n4)cc3Cl)c(=O)n(CCCCCO)c2n1
Response line: 6.6

Prompt line: Please look up its dTm MST3: CNc1ncc2cc(-c3ccc(-c4cccc(C)n4)cc3Cl)c(=O)n(CCN)c2n1
Response line: 5.5

Prompt line: Please look up its dTm MST3: CNc1ncc2cc(-c3ccc(-c4cccc(C)n4)cc3Cl)c(=O)n(CCOC)c2n1
Response line: 6.7

Prompt line: Please look up its dTm MST3: CNc1ncc2cc(-c3ccc(-c4cccc(C)n4)cc3Cl)c(=O)n(CCCOC)c2n1
Response line: 5.1

Prompt line: Please look up its dTm MST3: CNc1ncc2cc(-c3ccc(-c4cccc(C)n4)cc3Cl)c(=O)n(CCCCCN)c2n1
Response line: 9.2

Prompt line: Please look up its dTm MST3: CNc1ncc2cc(-c3ccc(-c4cccc(C)n4)cc3Cl)c(=O)n(CCCCO)c2n1
Response line: 5.7

Prompt line: Please look up its dTm MST3: CNc1ncc2cc(-c3ccc(-c4cccc(C)n4)cc3Cl)c(=O)n(CCCN)c2n1
Response line: 7.9

Prompt line: Please look up its dTm MST3: CNc1ncc2cc(-c3ccc(-c4cccc(C)n4)cc3Cl)c(O)nc2n1
Response line: 0.6

Prompt line: Please look up its dTm MST3: CNc1ncc2cc(-c3ccc(-c4cccc(C)n4)cc3Cl)c(=O)n(CCCCN)c2n1
Response line: 11.7
